Data provenance: PubChem BioAssay (NCI)

system: PC-3 prostate; test: NCI-60 one-dose screen, 48 h; details: 10 µM unless noted
This is part of a sample that, as a whole, favours compounds with a hit. Of some 83,000 tested, about 20% had one in any assay. Active and inactive are the calls of the source. How the source made its calls: active means growth percent below 10; inactive means the rest.
Classes used: active, inactive

# compound, label
measured = [
    ("COc1cccc(/C=C/c2nc3ccccc3c(=O)n2CC(=O)Nc2ccc(Cl)cc2)c1", "inactive"),
    ("O=C(c1ccc(OCCN2CCOCC2)cc1)C1[C@H](c2ccc(Cl)cc2)[C@@H](c2ccccc2)NC12C(=O)Nc1ccc(Br)cc12 (some centres undefined)", "active"),
    ("Cc1ccc(NC(=O)[C@]23CCC(C)(C)CC2C2=CCC4[C@@]5(C)C[C@@H](O)[C@H](O)[C@@](C)(CO)C5CC[C@@]4(C)[C@]2(C)CC3)cc1 (some centres undefined)", "active"),
    ("CC(C)c1sc(NC(=O)c2cc(NC(=O)c3cc(NC(=O)c4cscn4)cn3C)cn2C)nc1C(=O)NCCCN(C)C", "active"),
    ("O=S(=O)(Nc1cccc(-n2cnc3cc(-c4ccc(O)cc4)ccc32)c1)C1CC1", "inactive"),
    ("COc1ccc(N2N=C(c3ccc4c(c3)OCO4)CC2c2cccc(NC(=O)CCCNS(=O)(=O)c3ccc(F)cc3)c2)cc1 (centres undefined)", "inactive"),
    ("O=C(N1c2ccccc2Sc2ccccc21)n1ccc2cccnc21", "inactive"),
    ("Cc1c(C(=O)NNC(=O)c2ccc(Cl)cc2)nnn1-c1ccc(Br)cc1", "inactive"),
    ("COc1ccc(C(SCCNCc2cc(N(C)C)ccn2)(c2ccccc2)c2ccccc2)cc1", "active"),
    ("CN1CCN(c2ccc(C(=O)/C=C/c3ccc(Br)cc3)cc2)CC1", "inactive"),
    ("O=C(Nc1ccc(C(F)(F)F)cc1)Nc1ccc2oc(=O)ccc2c1", "inactive"),
    ("CC(=O)Oc1ccccc1C(=O)[Se]C(=NC1CCCCC1)NC1CCCCC1", "active"),
    ("CC1(C)CC[C@]2(C(=O)Nc3ccc(F)cc3)CC[C@]3(C)C(=CCC4[C@@]5(C)C[C@@H](O)[C@H](O)[C@@](C)(CO)C5CC[C@]43C)C2C1 (some centres undefined)", "inactive"),
    ("CCCCCCCCOc1cccc(S(=O)(=O)Nc2ccc(C)cc2C(=O)O)c1", "inactive"),
    ("C=C1CCC2C3(C)COC(c4ccco4)OC3CCC2(C)C1CC(Sc1ccccc1)C1=CCOC1=O (centres undefined)", "inactive"),
    ("N/N=C(\\N)c1c(N)nc(=S)[nH]c1-c1ccc(Cl)cc1Cl", "inactive"),
    ("COc1cc(/C=C2\\C(=N)N=C(SCc3nc4ccccc4[nH]3)NC2=O)ccc1O", "inactive"),
    ("CCCSc1nc(NCCc2c[nH]c3ccccc23)c(C#N)c(-c2ccccc2)n1", "inactive"),
    ("CC1=C(C(=O)OCc2ccccc2)C(c2c(O)cc(O)cc2O)n2c(nc3ccccc32)N1 (centres undefined)", "inactive"),
]

###

system: KM12 colon; assay: NCI-60 one-dose screen, 48 h (100 = growth as untreated, 0 = no growth, -100 = all killed); conditions: 10 µM unless noted
About 83,000 compounds went through this panel and 20% of them were active in at least one assay; those are over-represented in the sample as a whole.
Class Yes: growth at least 20%. Class No: growth below 20%.

# compound, label
measured = [
    ("NS(=O)(=O)c1ccc(-n2cc(-c3cccc(NC(=O)c4ccc(Cl)c(C(F)(F)F)c4)c3)nn2)cc1", "No"),
    ("COc1ccc(-c2nc3ccc(C(=O)NN4C(=O)c5ccc([N+](=O)[O-])cc5C4=O)cc3[nH]2)cc1", "Yes"),
    ("COc1ccc(C2=NN(c3ccccc3)C(c3ccc(OCc4ccccc4)c(OC)c3)C2)cc1OC (centres undefined)", "Yes"),
    ("O=C(c1ccc(OCCN2CCOCC2)cc1)C1[C@H](c2ccc(Cl)cc2)[C@@H](c2ccccc2)NC12C(=O)Nc1ccc(Cl)cc12 (some centres undefined)", "No"),
    ("COc1ccc(C(=O)/C=C/c2ccc3ccccc3c2)cc1S(N)(=O)=O", "No"),
    ("O=C(NNc1nc2cc(F)ccc2n2c(CN3CCCCC3)ccc12)c1cnccn1", "No"),
    ("C(=C\\c1cc(/C=C/c2ccccc2)c2ccccc2n1)/c1ccccc1", "Yes"),
    ("c1ccc(-c2csc(Nc3cccc(Nc4nc(-c5ccccc5)cs4)c3)n2)cc1", "No"),
    ("COC(OC)C1=C(C)OC(N)=C(C#N)C12C(=O)Nc1ccccc12 (centres undefined)", "Yes"),
    ("Cc1nc(Nc2ncc(C(=O)Nc3c(C)cccc3Cl)s2)cc(N2CCN(CCCNC(=O)COc3ccc(C4CCC(=O)NC4=O)cc3)CC2)n1 (centres undefined)", "Yes"),
    ("Cn1cc(-c2cc(N)n3nc(-c4cn(C)c5ccccc45)cc3n2)c2cc(Cl)ccc21", "No"),
    ("COc1cccc(COc2ccc(NC(=O)Nc3ccc(Cl)c(C(F)(F)F)c3)cc2)c1", "No"),
    ("CC(C)CSc1nc(NCCc2c[nH]c3ccccc23)c(C#N)c(-c2ccc(F)cc2)n1", "Yes"),
    ("Cn1cc(-c2cc3nc(-c4c[nH]c5ccc(Br)cc45)cc(N)n3n2)c2ccccc21", "No"),
    ("O=C1CCCc2cc(OCC(=O)N3CCCCC3)ccc2N1", "Yes"),
    ("COc1ccc([C@H](C)Nc2nc(Cl)nc3ccccc23)cc1", "Yes"),
    ("N/C(=N\\N=C\\c1ccc([N+](=O)[O-])cc1)c1c(N)nc(=S)[nH]c1-c1ccc(Cl)cc1Cl", "Yes"),
    ("O=C(COc1ccc(NC(=O)Nc2ccc(Cl)cc2)cc1)N/N=C/c1ccccc1", "No"),
    ("COc1ccccc1C(=O)NN1C(=O)/C(=C/C2=Cc3ccccc3OC2)SC1=S", "Yes"),
]
